The entries below are paired with their reported Emax.
target: Cannabinoid receptor 1 (Homo sapiens, UniProt P21554); assay: Positive allosteric modulatory activity at human CB1R expressed in CHO-K1 cells assessed as CP55940-induced cAMP level by hit-hunter cAMP assay relative to control; assay type: functional, cell-based
Sequence (P21554 whole entry): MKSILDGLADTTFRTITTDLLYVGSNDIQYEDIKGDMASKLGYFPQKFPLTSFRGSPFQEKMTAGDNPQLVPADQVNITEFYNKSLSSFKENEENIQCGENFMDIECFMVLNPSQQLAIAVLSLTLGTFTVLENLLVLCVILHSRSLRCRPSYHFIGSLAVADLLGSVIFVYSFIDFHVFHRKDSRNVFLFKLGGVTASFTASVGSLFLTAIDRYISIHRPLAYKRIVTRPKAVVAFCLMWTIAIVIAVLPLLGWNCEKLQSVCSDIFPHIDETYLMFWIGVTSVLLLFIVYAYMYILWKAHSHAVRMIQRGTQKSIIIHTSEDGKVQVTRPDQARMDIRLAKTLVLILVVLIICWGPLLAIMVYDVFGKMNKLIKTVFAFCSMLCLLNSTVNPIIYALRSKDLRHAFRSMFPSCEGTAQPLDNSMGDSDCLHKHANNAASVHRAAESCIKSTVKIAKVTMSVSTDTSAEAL

compound: O=[N+]([O-])CC(c1ccccc1)c1c(-c2ccccc2)[nH]c2ccccc12 (stereo not drawn)
tested target: Cannabinoid receptor 1 (Homo sapiens, UniProt P21554)
Emax: 110%

compound: O=[N+]([O-])CC(c1ccccc1)c1cn(-c2ccccc2)c2ccccc12 (stereo not drawn)
tested target: Cannabinoid receptor 1 (Homo sapiens, UniProt P21554)
Emax: 0%

compound: O=[N+]([O-])CC(c1ccccc1)c1cc[nH]c1-c1ccccc1 (stereo not drawn)
tested target: Cannabinoid receptor 1 (Homo sapiens, UniProt P21554)
Emax: 0%

compound: O=[N+]([O-])CC(c1ccccc1)c1c(C2CCCCC2)[nH]c2ccccc12 (stereo not drawn)
tested target: Cannabinoid receptor 1 (Homo sapiens, UniProt P21554)
Emax: 121%

compound: Cn1c(-c2ccccc2)c(C(C[N+](=O)[O-])c2ccccc2)c2ccccc21 (stereo not drawn)
tested target: Cannabinoid receptor 1 (Homo sapiens, UniProt P21554)
Emax: 0%

compound: O=[N+]([O-])CC(c1ccccc1)c1c[nH]c2ccccc12 (stereo not drawn)
tested target: Cannabinoid receptor 1 (Homo sapiens, UniProt P21554)
Emax: 0%

compound: O=[N+]([O-])CCc1c(-c2ccccc2)[nH]c2ccccc12
tested target: Cannabinoid receptor 1 (Homo sapiens, UniProt P21554)
Emax: 85%

compound: NCC(c1ccccc1)c1c(-c2ccccc2)[nH]c2ccccc12 (stereo not drawn)
tested target: Cannabinoid receptor 1 (Homo sapiens, UniProt P21554)
Emax: 12%

* * *

Reported Emax by item:
target: UniProtKB P47746; experiment: Positive allosteric modulatory activity at mouse CB1R expressed in CHO-K1 cells assessed as CP55940-induced beta-arrestin2 recruitment by pathhunter beta-arrestin assay relative to control; type: cell-based
Sequence (P47746 whole entry): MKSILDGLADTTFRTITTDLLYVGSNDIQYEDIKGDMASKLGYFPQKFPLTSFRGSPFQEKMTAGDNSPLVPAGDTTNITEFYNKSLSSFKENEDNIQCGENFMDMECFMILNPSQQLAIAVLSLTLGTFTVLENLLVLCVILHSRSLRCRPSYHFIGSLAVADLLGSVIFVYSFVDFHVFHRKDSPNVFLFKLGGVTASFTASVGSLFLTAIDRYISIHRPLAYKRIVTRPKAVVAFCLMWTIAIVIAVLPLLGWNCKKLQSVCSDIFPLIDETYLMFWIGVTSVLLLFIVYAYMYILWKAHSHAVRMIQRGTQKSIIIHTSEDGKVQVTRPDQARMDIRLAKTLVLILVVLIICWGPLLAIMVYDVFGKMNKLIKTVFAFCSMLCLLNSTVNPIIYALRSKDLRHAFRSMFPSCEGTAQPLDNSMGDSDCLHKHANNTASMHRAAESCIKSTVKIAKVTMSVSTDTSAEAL

compound: Cn1c(-c2ccccc2)c(C(C[N+](=O)[O-])c2ccccc2)c2ccccc21 (stereo not drawn)
Emax (%): 0
//
compound: O=[N+]([O-])CC(c1ccccc1)c1cc[nH]c1-c1ccccc1 (stereo not drawn)
Emax (%): 0
//
compound: O=[N+]([O-])CC(c1ccccc1)c1cn(-c2ccccc2)c2ccccc12 (stereo not drawn)
Emax (%): 0
//
compound: O=[N+]([O-])CC(c1ccccc1)c1c[nH]c2ccccc12 (stereo not drawn)
Emax (%): 0
//
compound: O=[N+]([O-])CC(c1ccccc1)c1c(-c2ccccc2)[nH]c2ccccc12 (stereo not drawn)
Emax (%): 46
//
compound: O=[N+]([O-])CC(c1ccccc1)c1c(C2CCCCC2)[nH]c2ccccc12 (stereo not drawn)
Emax (%): 0
//
compound: NCC(c1ccccc1)c1c(-c2ccccc2)[nH]c2ccccc12 (stereo not drawn)
Emax (%): 12
//
compound: O=[N+]([O-])CCc1c(-c2ccccc2)[nH]c2ccccc12
Emax (%): 0
